Provenance of the data: PubChem BioAssay AID1460

# ASSAY_TARGET: Microtubule-associated protein tau (Homo sapiens) (UniProt P10636)
# Sequence (P10636 561-689 P618L limits assumed): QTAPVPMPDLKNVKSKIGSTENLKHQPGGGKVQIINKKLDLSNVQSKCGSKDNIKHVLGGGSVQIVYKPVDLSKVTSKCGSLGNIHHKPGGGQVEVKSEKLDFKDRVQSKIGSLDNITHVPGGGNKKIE
# PROCEDURE_TEXT: qHTS for Inhibitors of Tau Fibril Formation, Thioflavin T Binding; further: nearly all actives have a fitted effect of over 55% in size
# CONDITION_NOTES: recombinant tau K18 P301L, heparin-induced fibrillization, ThT fluorescence; series mostly up to 57.4 µM
About 5,800 (2.1%) of roughly 270,000 compounds were called active. About 16% were inconclusive and are not listed. The call rests on the fitted dose curve; in most records, active means well fitted inhibition curve with a large enough effect; inconclusive means small, poorly fitted or top-dose-only effect; inactive means flat fitted curve, though single readings scatter. The sample as a whole holds a higher share of actives than the screen did.
Possible outcomes: active, inactive

>  <MOLECULE>
CN(C)/C=C1/C(=O)Nc2ccccc21

>  <ASSAY_TARGET>
Microtubule-associated protein tau (Homo sapiens) (UniProt P10636)

>  <QUALITATIVE_LABEL>
inactive

$$$$
>  <MOLECULE>
COc1ccccc1N1CCN(C(=O)C2CCN(S(=O)(=O)c3c(C)noc3/C=C/c3ccc(C)cc3)CC2)CC1

>  <ASSAY_TARGET>
Microtubule-associated protein tau (Homo sapiens) (UniProt P10636)

>  <QUALITATIVE_LABEL>
inactive

$$$$
>  <MOLECULE>
CCN(CC)S(=O)(=O)c1ccc(C(=O)N=c2sc3cccc(OC)c3n2C)cc1

>  <ASSAY_TARGET>
Microtubule-associated protein tau (Homo sapiens) (UniProt P10636)

>  <QUALITATIVE_LABEL>
inactive

$$$$
>  <MOLECULE>
Cc1ccc(Cl)cc1N(C)C(=O)C1CCCN(c2ncnc3onc(-c4ccc(F)cc4)c23)C1 (centres undefined)

>  <ASSAY_TARGET>
Microtubule-associated protein tau (Homo sapiens) (UniProt P10636)

>  <QUALITATIVE_LABEL>
inactive

$$$$
>  <MOLECULE>
Cc1cc(C)c(/C=C2\C(=O)Nc3ccccc32)[nH]1

>  <ASSAY_TARGET>
Microtubule-associated protein tau (Homo sapiens) (UniProt P10636)

>  <QUALITATIVE_LABEL>
active

$$$$
>  <MOLECULE>
Cc1c(-c2nsc(NC(=O)c3cccc(Cl)c3)n2)nnn1-c1ccccc1C(F)(F)F

>  <ASSAY_TARGET>
Microtubule-associated protein tau (Homo sapiens) (UniProt P10636)

>  <QUALITATIVE_LABEL>
inactive

$$$$
>  <MOLECULE>
CCOc1ccc(NC(=O)Cn2c(=O)n(CCCC(=O)NCc3ccc4c(c3)OCO4)c(=O)c3ccccc32)cc1

>  <ASSAY_TARGET>
Microtubule-associated protein tau (Homo sapiens) (UniProt P10636)

>  <QUALITATIVE_LABEL>
inactive

$$$$
>  <MOLECULE>
COc1ccc(S(=O)(=O)c2c(Nc3ccc(C)cc3)sc(C(=O)c3ccc(C)cc3)c2N)cc1

>  <ASSAY_TARGET>
Microtubule-associated protein tau (Homo sapiens) (UniProt P10636)

>  <QUALITATIVE_LABEL>
inactive

$$$$
>  <MOLECULE>
CCOC(=O)c1ccc(NC(=O)Cn2cc(S(=O)(=O)Cc3ccccc3F)c3ccccc32)cc1

>  <ASSAY_TARGET>
Microtubule-associated protein tau (Homo sapiens) (UniProt P10636)

>  <QUALITATIVE_LABEL>
inactive

$$$$

* * *

# ASSAY_TARGET: Microtubule-associated protein tau (Homo sapiens)
# PROCEDURE_TEXT: qHTS for Inhibitors of Tau Fibril Formation, Thioflavin T Binding; further: nearly all actives have a fitted effect of over 55% in size
# CONDITION_NOTES: recombinant tau K18 P301L (four-repeat tau fragment), heparin-induced fibrillization, ThT fluorescence; series mostly up to 57.4 µM
In all, about 270,000 compounds went through this assay and about 5,800 (2.1%) were called active. About 16% were inconclusive and are not listed. The call rests on the fitted dose curve; in most records, active means well fitted inhibition curve with a large enough effect; inconclusive means small, poorly fitted or top-dose-only effect; inactive means flat fitted curve, though single readings scatter. This is one part of a sample in which actives are shown more often than they occur.
Possible outcomes: T for active, F for inactive

>  <MOLECULE>
CC(C)OCCCn1c(SCC(=O)c2ccccc2)nc2c(sc3ccccc32)c1=O

>  <QUALITATIVE_LABEL>
F

$$$$
>  <MOLECULE>
CCOc1cccc(/C=N/NC(=S)NCCN2CCOCC2)c1O

>  <QUALITATIVE_LABEL>
F

$$$$
>  <MOLECULE>
Cc1ccc(/C=C(\C#N)C(=O)Nc2cccc3ncccc23)o1

>  <QUALITATIVE_LABEL>
T

$$$$
>  <MOLECULE>
O=C(N/N=C/c1ccc2c(c1)OCO2)C(=O)N1CCCC1

>  <QUALITATIVE_LABEL>
F

$$$$
>  <MOLECULE>
CCCCn1c(=O)c2oc3ccccc3c2n(CC(=O)Nc2ccccc2OC)c1=O

>  <QUALITATIVE_LABEL>
F

$$$$
>  <MOLECULE>
Cc1cc(-c2n[nH]c(=S)n2/N=C/c2ccco2)n[nH]1

>  <QUALITATIVE_LABEL>
F

$$$$
>  <MOLECULE>
CCOc1ccccc1NC(=O)Cn1c(=O)n(Cc2ccccc2)c(=O)c2c(C)c(C(=O)N(C)C)sc21

>  <QUALITATIVE_LABEL>
F

$$$$
>  <MOLECULE>
CCC(=O)Nc1cccc(-c2nc3cc(C)ccc3o2)c1

>  <QUALITATIVE_LABEL>
F

$$$$
>  <MOLECULE>
CCCNC(=O)C1CC(=O)N(c2ccc(OCC(=O)Nc3cccc(C)c3C)cc2)C1 (stereo not drawn)

>  <QUALITATIVE_LABEL>
F

$$$$
>  <MOLECULE>
CCS(=O)(=O)c1cc([N+](=O)[O-])c(Sc2ccccc2N)s1

>  <QUALITATIVE_LABEL>
T

$$$$
>  <MOLECULE>
COc1cccc(-n2cc(C(=O)NCc3cccc(Cl)c3)c3ccccc3c2=O)c1

>  <QUALITATIVE_LABEL>
F

$$$$
>  <MOLECULE>
COc1ccc(NC(=O)c2cc3cc(C)ccc3n2C)cc1

>  <QUALITATIVE_LABEL>
F

$$$$
>  <MOLECULE>
CCOc1ccc(NC(=O)c2cc(S(=O)(=O)N3CCCC3)c[nH]2)cc1

>  <QUALITATIVE_LABEL>
F

$$$$
>  <MOLECULE>
CCCC(=O)Nc1ccc(C(=O)NCCCn2ccnc2)cc1

>  <QUALITATIVE_LABEL>
F

$$$$
>  <MOLECULE>
Cc1ccc(CCNC(=O)c2nnc(Cc3cccc(F)c3)o2)cc1

>  <QUALITATIVE_LABEL>
F

$$$$
>  <MOLECULE>
COc1ccccc1CNC(=O)c1ccc(-n2c(C)cc3c2CCCC3)cc1

>  <QUALITATIVE_LABEL>
F

$$$$
>  <MOLECULE>
COCCNc1ncnc2c1c(-c1ccccc1)cn2-c1ccc(C)c(Cl)c1

>  <QUALITATIVE_LABEL>
F

$$$$
>  <MOLECULE>
O=C(Nc1ccccc1Cl)N1CCC(CN2CCCCC2)CC1

>  <QUALITATIVE_LABEL>
F

$$$$
>  <MOLECULE>
CCC1=C/C(=C\c2ccc3c(c2)OCO3)C(=O)S1

>  <QUALITATIVE_LABEL>
T

$$$$
>  <MOLECULE>
O=C(NCC(c1cccnc1)N1CCc2ccccc21)c1cccc(C(F)(F)F)c1 (stereo not drawn)

>  <QUALITATIVE_LABEL>
F

$$$$
>  <MOLECULE>
CSc1ccc(C2C(C(=O)Nc3ccccc3)=C(C)Nc3nc4ccccc4n32)cc1 (stereo not drawn)

>  <QUALITATIVE_LABEL>
F

$$$$
>  <MOLECULE>
CCC(=O)Nc1ccc(C)cc1-c1nc2ccccc2n(Cc2ccccc2)c1=O

>  <QUALITATIVE_LABEL>
F

$$$$
>  <MOLECULE>
O=C(Nc1cccc2ncccc12)C(Cl)(Cl)Cl

>  <QUALITATIVE_LABEL>
F

$$$$
>  <MOLECULE>
CCOc1ccccc1N=C1NC(=O)CS1

>  <QUALITATIVE_LABEL>
F

$$$$
>  <MOLECULE>
CCOc1cccc(CC(=O)N2CCc3c([nH]c4ccccc34)C2c2ccc(OC)cc2)c1OCC (stereo not drawn)

>  <QUALITATIVE_LABEL>
F

$$$$
>  <MOLECULE>
O=C1/C(=C/c2ccc3c(c2)OCO3)CCC/C1=C\c1ccc2c(c1)OCO2

>  <QUALITATIVE_LABEL>
T

$$$$
>  <MOLECULE>
Cc1ccnc(-n2sc3ccccc3c2=O)n1

>  <QUALITATIVE_LABEL>
T

$$$$
>  <MOLECULE>
O=c1cc(CSc2ncn[nH]2)[nH]c2ccc(F)cc12

>  <QUALITATIVE_LABEL>
F

$$$$
>  <MOLECULE>
CCCOc1ccc(N2CC(C(=O)Nc3ccccn3)CC2=O)cc1 (stereo not drawn)

>  <QUALITATIVE_LABEL>
F

$$$$
>  <MOLECULE>
CCc1c(C)sc(NC(=O)/C=C/c2ccc3c(c2)OCO3)c1C(=O)OC

>  <QUALITATIVE_LABEL>
F

$$$$
>  <MOLECULE>
Cc1ccc(S(=O)(=O)n2nc(C)c(S(=O)(=O)N3CCCCCC3)c2C)cc1

>  <QUALITATIVE_LABEL>
F

$$$$
>  <MOLECULE>
CCOc1cccc(/C=N/N2C(=O)CSC2=S)c1O

>  <QUALITATIVE_LABEL>
T

$$$$
>  <MOLECULE>
CCOC(=O)CCCNC(=O)COC(=O)/C=C/c1ccc2c(c1)OCO2

>  <QUALITATIVE_LABEL>
F

$$$$
>  <MOLECULE>
Cc1ccc2sc(N(Cc3cccnc3)C(=O)C3COc4ccccc4O3)nc2c1C (stereo not drawn)

>  <QUALITATIVE_LABEL>
F

$$$$
>  <MOLECULE>
CCOc1ccc(N2CC(C(=O)NCCN3C(=O)S/C(=C\c4cccnc4)C3=O)CC2=O)cc1 (stereo not drawn)

>  <QUALITATIVE_LABEL>
T

$$$$
>  <MOLECULE>
NS(=O)(=O)c1ccc(NC(=O)COC(=O)c2c3c(nc4ccccc24)/C(=C\c2ccc4c(c2)OCO4)CCC3)cc1

>  <QUALITATIVE_LABEL>
F

$$$$
>  <MOLECULE>
COc1ccc(Cl)cc1NC(=O)C(C)Sc1nc2c(c(=O)[nH]1)CCCC2 (stereo not drawn)

>  <QUALITATIVE_LABEL>
F

$$$$
>  <MOLECULE>
CCc1ccccc1NC(=O)Cn1c(=O)n(CC2CCC(C(=O)NCCc3ccccc3)CC2)c(=O)c2ccccc21 (stereo not drawn)

>  <QUALITATIVE_LABEL>
F

$$$$
>  <MOLECULE>
Cc1ccnc(SCC(N)=O)n1

>  <QUALITATIVE_LABEL>
F

$$$$
>  <MOLECULE>
COc1cccc(CNCc2c(C(=O)O)n(Cc3ccc(C)cc3)c3cc(C)ccc23)c1OC

>  <QUALITATIVE_LABEL>
F

$$$$
>  <MOLECULE>
O=C(Nc1cccc2ncccc12)c1ccc(-c2ccc(Cl)cc2Cl)o1

>  <QUALITATIVE_LABEL>
F

$$$$
>  <MOLECULE>
Cc1ccc2c(c1)c1c(c(=O)n(-c3ccccc3)c(=O)n1CC(=O)c1ccc(Cl)cc1)n2C

>  <QUALITATIVE_LABEL>
F

$$$$
>  <MOLECULE>
COc1cc(C(=O)NCCS(=O)(=O)N2CCN(c3ccccc3)CC2)cc(OC)c1OC

>  <QUALITATIVE_LABEL>
F

$$$$
